Source: patent EP4682166A1

Biological target: T1, human NMI (N-myc Interacting protein), recombinant protein (human, UniProt Q13287 1-307, limits assumed)
T1 construct: Gene ID: 9111; also called hNMI; antigen
T1 sequence (looked up): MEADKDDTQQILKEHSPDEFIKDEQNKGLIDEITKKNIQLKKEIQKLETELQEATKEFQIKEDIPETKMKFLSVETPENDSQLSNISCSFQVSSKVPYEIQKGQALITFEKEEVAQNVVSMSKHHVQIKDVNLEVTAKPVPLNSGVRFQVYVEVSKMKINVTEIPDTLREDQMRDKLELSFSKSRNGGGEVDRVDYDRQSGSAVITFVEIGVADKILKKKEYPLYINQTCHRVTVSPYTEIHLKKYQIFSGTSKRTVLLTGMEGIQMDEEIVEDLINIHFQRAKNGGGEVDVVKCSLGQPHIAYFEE
Assay: sandwich ELISA; detection 94C4-1-biotin 1µg/mL; hNMI 390.625 pg/mL
Quantity measured: OD450 (OD450)

{"columns": ["Binder", "Data value"],
 "data": [
  ["monoclonal antibody B-8 (antibody, V domains shown, Rabbit monoclonal antibody; also called B8-1) VH: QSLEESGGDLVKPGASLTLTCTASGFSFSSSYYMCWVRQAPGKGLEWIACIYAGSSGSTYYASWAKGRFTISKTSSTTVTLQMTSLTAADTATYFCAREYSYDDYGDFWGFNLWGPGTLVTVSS VL: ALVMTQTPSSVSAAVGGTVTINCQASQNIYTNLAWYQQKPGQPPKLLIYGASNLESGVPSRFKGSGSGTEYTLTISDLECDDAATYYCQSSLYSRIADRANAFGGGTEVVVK", 0.206],
  ["monoclonal antibody 39B4 (antibody, V domains shown, Rabbit monoclonal antibody; also called 39B4-1) VH: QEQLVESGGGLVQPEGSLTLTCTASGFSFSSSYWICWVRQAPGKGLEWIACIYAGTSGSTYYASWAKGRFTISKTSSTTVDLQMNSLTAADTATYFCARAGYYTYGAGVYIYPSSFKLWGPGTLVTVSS VL: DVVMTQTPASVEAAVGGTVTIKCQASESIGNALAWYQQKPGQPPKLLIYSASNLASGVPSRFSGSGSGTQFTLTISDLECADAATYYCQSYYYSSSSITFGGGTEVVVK", 0.251],
  ["monoclonal antibody 240B10-1 (antibody, V domains shown, Rabbit monoclonal antibody) VH: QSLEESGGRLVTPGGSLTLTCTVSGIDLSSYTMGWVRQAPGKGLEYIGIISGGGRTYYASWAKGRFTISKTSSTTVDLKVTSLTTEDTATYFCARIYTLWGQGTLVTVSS VL: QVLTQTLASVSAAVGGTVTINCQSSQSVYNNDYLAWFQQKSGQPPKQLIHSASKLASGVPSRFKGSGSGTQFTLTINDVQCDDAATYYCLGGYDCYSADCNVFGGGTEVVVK", 0.255]
]}
